system: human embryonic skin fibroblast Detroit 551; assay: Cell viability MTS assay, Detroit 551; assay type: cell-based; details: 72 hours incubation
pIC50: −log10 of the molar value.
reported-metric: pIC50

Worked cases, answers included:
CCc1c2c(nc3ccc(OC(=O)N4CCC(N5CCCCC5)CC4)cc13)-c1cc3c(c(=O)n1C2)COC(=O)[C@]3(O)CC [CPT-11, reference compound]	< 5.00
CCc1c2c(nc3ccc(OC(=O)c4ccc(CN(CCOCCOCCNC(=O)c5ccc(CN(CCCCOc6cc(CN(Cc7ccccn7)Cc7ccccn7)cc(CN(Cc7ccccn7)Cc7ccccn7)c6)C(=O)C6(c7ccc(Cl)cc7)CCCCC6)cc5)C(=O)C5(c6ccc(Cl)cc6)CCCCC5)cc4)cc13)-c1cc3c(c(=O)n1C2)COC(=O)[C@]3(O)CC [Zn-DPA-(42)]	< 5.00

Here is another molecule to look at.
Req: I would be grateful if you could share the reported pIC50 for CCc1c2c(nc3ccc(OC(=O)c4ccc(CN(CCCCOc5cc(CN(Cc6ccccn6)Cc6ccccn6)cc(CN(Cc6ccccn6)Cc6ccccn6)c5)C(=O)C5(c6ccc(Cl)cc6)CCCCC5)cc4)cc13)-c1cc3c(c(=O)n1C2)COC(=O)[C@]3(O)CC [Zn-DPA-(26)] .
Resp: < 5.00
